The values you see were collected from patent US9682066B2.

ASSAY REMARKS: in vivo
SETTINGS: female, Sprague-Dawley, rat, plasma (total), iv, 12 mg/kg
REPORTED PROPERTY: Cmax (ng/mL)
One number for each entry, in ng/mL.

Q. Find the recorded Cmax belonging to N#Cc1ccc(C(c2ccc(C#N)cc2)n2cncn2)cc1 [letrozole] and report it.
A. 2070

----------
ASSAY REMARKS: Tumoral versus normal brain ECF pharmacokinetics in C6 glioma-bearing rats
Format: in vivo
SETTINGS: female, Sprague-Dawley, rat, tumoral brain ECF (right striatum); 8 mg/kg IV bolus, tumoral brain ECF, mean±SD; read-out: AUC0-8 hr, Tumor
REPORTED PROPERTY: AUC(0-t) (ng·h/mL)
Give bare numbers, in ng·h/mL.

Q. Tell me the measured AUC(0-t) of N#Cc1ccc(C(c2ccc(C#N)cc2)n2cncn2)cc1 [letrozole] , please.
A. 4700

----------
ASSAY REMARKS: Plasma protein binding with non-specific binding correction
Format: in vitro ADME
SETTINGS: NSB correction, concentration range 0.1-10 μM
Excerpt: Results are presented as mean±SD.
REPORTED PROPERTY: fraction unbound

Q. Tell me the measured fraction unbound of N#Cc1ccc(C(c2ccc(C#N)cc2)n2cncn2)cc1 [letrozole] , please.
A. 0.38

----------
ASSAY REMARKS: Tumoral versus normal brain ECF pharmacokinetics in C6 glioma-bearing rats
Type: in vivo, female Sprague-Dawley rats
SETTINGS: female, Sprague-Dawley, rat, tumor-free brain ECF (left striatum, control); 4 mg/kg IV bolus, tumor-free brain ECF, mean±SD
REPORTED PROPERTY: Tmax (h)
Answers are plain numbers, in h.

Q. Would you kindly share the measured Tmax for N#Cc1ccc(C(c2ccc(C#N)cc2)n2cncn2)cc1 ?
A. 1.75

----------
ASSAY REMARKS: in vivo
SETTINGS: female, Sprague-Dawley, rat, brain ECF, iv, 6 mg/kg
REPORTED PROPERTY: AUC(0-t) (µg·h/mL)
One number for each entry, in µg·h/mL.

Q. # input compound: N#Cc1ccc(C(c2ccc(C#N)cc2)n2cncn2)cc1 [letrozole] ; wanted: its AUC(0-t)
A. 2.01

----------
ASSAY REMARKS: in vivo
SETTINGS: female, Sprague-Dawley, rat, brain ECF, iv, 8 mg/kg
REPORTED PROPERTY: AUC(0-t)
Reply with a number, then the unit it belongs to.

Q. Name the recorded AUC(0-t) for N#Cc1ccc(C(c2ccc(C#N)cc2)n2cncn2)cc1 .
A. 2640 ng·h/mL

----------
System: U373MG
ASSAY REMARKS: Cytotoxicity of letrozole (MTT assay)
Type: cell-based
SETTINGS: Homo sapiens, U373 MG
REPORTED PROPERTY: IC50 (µM)
Numbers only, in µM.

Q. Identify the measured IC50 of N#Cc1ccc(C(c2ccc(C#N)cc2)n2cncn2)cc1 for U373MG.
A. 4.39

----------
ASSAY REMARKS: Tumoral versus normal brain ECF pharmacokinetics in C6 glioma-bearing rats
Type: in vivo
SETTINGS: female, Sprague-Dawley, rat, tumor-free brain ECF (left striatum, control); 8 mg/kg IV bolus, tumor-free brain ECF, mean±SD; read-out: AUC0-8 hr, Control
REPORTED PROPERTY: AUC(0-t) (ng·h/mL)
Answers are plain numbers, in ng·h/mL.

Q. Any idea what its AUC(0-t) is? The compound is N#Cc1ccc(C(c2ccc(C#N)cc2)n2cncn2)cc1
A. 2280
